Just for reference, patent US20200079833A1 is where these values come from.

Answer each item with its documented cAMP Primary assay EC50 GIP-R (2nd).
measured.target: T1, glucose-dependent insulinotropic peptide (gastric inhibitory polypeptide) receptor (GIPR) (human, UniProt P48546 22-466)
T1 sequence (looked up): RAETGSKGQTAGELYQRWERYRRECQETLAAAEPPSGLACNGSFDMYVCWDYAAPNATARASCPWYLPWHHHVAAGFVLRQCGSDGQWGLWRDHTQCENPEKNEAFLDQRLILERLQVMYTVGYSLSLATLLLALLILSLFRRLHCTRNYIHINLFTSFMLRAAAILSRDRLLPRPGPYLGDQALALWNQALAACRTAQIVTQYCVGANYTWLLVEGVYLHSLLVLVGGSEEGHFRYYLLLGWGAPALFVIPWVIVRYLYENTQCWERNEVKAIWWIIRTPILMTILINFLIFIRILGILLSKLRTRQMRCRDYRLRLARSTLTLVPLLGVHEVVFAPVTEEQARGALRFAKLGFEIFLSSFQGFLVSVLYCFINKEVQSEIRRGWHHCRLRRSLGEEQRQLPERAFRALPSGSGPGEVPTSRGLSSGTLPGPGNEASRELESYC
measurement.notes: cell-based or functional assay
Starred links: 1 amine or outer side, 2 acyl side, 3 side chain; linkers in the order of their positions; H or OH if unused. Non-standard residues stand in square brackets, D forms with d. Groups on a side chain read outwards from the residue. Primed or numbered codes have the meaning given here. No end group written: not given here. *: point of attachment. Dodecanoyl(12-OPh(4-COOH)) = O=C(O)c1ccc(OCCCCCCCCCCCC(=O)*)cc1; γGlu = O=C(O)[C@H](CCC(=O)[*:2])N[*:1]; Stearoyl = CCCCCCCCCCCCCCCCCC(=O)*; αMeF = C[C@](N)(Cc1ccccc1)C(=O)O; αMeK = C[C@](N)(CCCCN)C(=O)O; αMeS = C[C@](N)(CO)C(=O)O; PEG2′ = not defined here; Aib = CC(C)(N)C(=O)O
Number in nM, nothing else.

Request: What value of cAMP Primary assay EC50 GIP-R (2nd) has been reported for the following binder? H[Aib]EK([PEG2′-PEG2′-γGlu-Stearoyl])S[αMeF]TSDV[αMeS]S[αMeF]LEGEAA[αMeK]E[αMeF]IA[αMeF]VV[αMeK]GG-NH2 [SEQ ID NO 125]
Result: 24.9

Request: Proceed to H[Aib]EGS[αMeF]TSDV[αMeS]S[αMeF]LEGEAA[αMeK]E[αMeF]IA[αMeF]VVK([PEG2′-PEG2′-γGlu-Stearoyl])GG-NH2 [SEQ ID NO 101]
Result: 25.4

Request: Proceed to H[Aib]EGS[αMeF]TSDV[αMeS]S[αMeF]LEGEAAK([PEG2′-PEG2′-Dodecanoyl(12-OPh(4-COOH))])E[αMeF]IA[αMeF]VV[αMeK]GG-NH2 [SEQ ID NO 144]
Result: 26

Request: Proceed to H[Aib]EGS[αMeF]TSDV[αMeS]S[αMeF]K([PEG2′-PEG2′-γGlu-Stearoyl])EGEAA[αMeK]E[αMeF]IA[αMeF]VV[αMeK]GG-NH2 [SEQ ID NO 115]
Result: 25.3

Request: Proceed to H[Aib]EGS[αMeF]TSK([PEG2′-PEG2′-γGlu-Stearoyl])V[αMeS]S[αMeF]LEGEAA[αMeK]E[αMeF]IA[αMeF]VV[αMeK]GG-NH2 [SEQ ID NO 120]
Result: 25.3
